Reported total protein half-life in vivo by item:
test-method-notes: total protein half-life in vivo (active degradation + dilution); higher = more stable protein
condition-description: E. coli NCM3722 delta-hslV; growth: N-lim chemostat; doubling time 6 h
Give the quantity in h, number only.

Worked examples follow.
sequence-chain: MSCEELEIVWNNIKAEARTLADCEPMLASFYHATLLKHENLGSALSYMLANKLSSPIMPAIAIREVVEEAYAADPEMIASAACDIQAVRTRDPAVDKYSTPLLYLKGFHALQAYRIGHWLWNQGRRALAIFLQNQVSVTFQVDIHPAAKIGRGIMLDHATGIVVGETAVIENDVSILQSVTLGGTGKSGGDRHPKIREGVMIGAGAKILGNIEVGRGAKIGAGSVVLQPVPPHTTAAGVPARIVGKPDSDKPSMDMDQHFNGINHTFEYGDGI [P0A9D4]
unit-symbol: h
total protein half-life in vivo: 4.32
//
sequence-chain: MENKYSRLQISIHWLVFLLVIAAYCAMEFRGFFPRSDRPLINMIHVSCGISILVLMVVRLLLRLKYPTPPIIPKPKPMMTGLAHLGHLVIYLLFIALPVIGLVMMYNRGNPWFAFGLTMPYASEANFERVDSLKSWHETLANLGYFVIGLHAAAALAHHYFWKDNTLLRMMPRKRS [P0ABE5]
unit-symbol: h
total protein half-life in vivo: 6.32

Proceed to the following item.
I have this sequence here, MTNNPLIPQSKLPQLGTTIFTQMSALAQQHQAINLSQGFPDFDGPRYLQERLAHHVAQGANQYAPMTGVQALREAIAQKTERLYGYQPDADSDITVTAGATEALYAAITALVRNGDEVICFDPSYDSYAPAIALSGGIVKRMALQPPHFRVDWQEFAALLSERTRLVILNTPHNPSATVWQQADFAALWQAIAGHEIFVISDEVYEHINFSQQGHASVLAHPQLRERAVAVSSFGKTYHMTGWKVGYCVAPAPISAEIRKVHQYLTFSVNTPAQLALADMLRAEPEHYLALPDFYRQKRDILVNALNESRLEILPCEGTYFLLVDYSAVSTLDDVEFCQWLTQEHGVAAIPLSVFCADPFPHKLIRLCFAKKESTLLAAAERLRQL , and I need its recorded total protein half-life in vivo.
1.69

The reported measurements were obtained from the supplement of paper PMC11246515.
